system: 755483-174-R-J1-PDC complex spheroid growth, percent test/control; assay: Anticancer human tumor 755483-174-R-J1-PDC patient-derived rhabdomyosarcoma cell line growth inhibition [Asc]; settings: second compound 0.0949 µM; first compound 0.316 µM; stronger effect = lower value
Rule: viability, T/C below 50% gives t. Equal to or above 50% gives f.

// known answers, use as guide
CCN1CCN(Cc2ccc(Nc3ncc(F)c(-c4cc(F)c5nc(C)n(C(C)C)c5c4)n3)nc2)CC1 + CCN1C(C(=O)NC23CCC(C(=O)O)(CC2)CC3)C(c2cccc(Cl)c2F)C2(C(=O)Nc3cc(Cl)ccc32)C12CCCCC2; f
CNC(C)C(=O)NC1CN(S(=O)(=O)c2cccc(S(=O)(=O)N3CCC4CCC(C(=O)NC(c5ccccc5)c5ccccc5)N4C(=O)C(NC(=O)C(C)NC)C3)c2)CCC2CCC(C(=O)NC(c3ccccc3)c3ccccc3)N2C1=O (stereo unspecified) + CCN1C(C(=O)NC23CCC(C(=O)O)(CC2)CC3)C(c2cccc(Cl)c2F)C2(C(=O)Nc3cc(Cl)ccc32)C12CCCCC2; t
O=C(c1ccc(F)c(F)c1Nc1ccc(I)cc1F)N1CC(O)([C@@H]2CCCCN2)C1 + CCN1C(C(=O)NC23CCC(C(=O)O)(CC2)CC3)C(c2cccc(Cl)c2F)C2(C(=O)Nc3cc(Cl)ccc32)C12CCCCC2; f
C=CC(=O)N1CCN(c2nc(=O)n(-c3c(C)ccnc3C(C)C)c3nc(-c4c(O)cccc4F)c(F)cc23)C(C)C1 (stereo unspecified) + CCN1C(C(=O)NC23CCC(C(=O)O)(CC2)CC3)C(c2cccc(Cl)c2F)C2(C(=O)Nc3cc(Cl)ccc32)C12CCCCC2; f
O=C(c1cc(Cc2n[nH]c(=O)c3ccccc23)ccc1F)N1CCN(C(=O)C2CC2)CC1 + CCN1C(C(=O)NC23CCC(C(=O)O)(CC2)CC3)C(c2cccc(Cl)c2F)C2(C(=O)Nc3cc(Cl)ccc32)C12CCCCC2; f

Please find the next compound below.
Answer whether the compound COc1c(OCCCN2CCOCC2)ccc2c3n(c(=NC(=O)c4cnc(N)nc4)nc12)CCN3 + CCN1C(C(=O)NC23CCC(C(=O)O)(CC2)CC3)C(c2cccc(Cl)c2F)C2(C(=O)Nc3cc(Cl)ccc32)C12CCCCC2 has viability, T/C strictly less than 50% t

---

tested on: 755483-174-R-J1-PDC complex spheroid growth, percent test/control; assay: Anticancer human tumor 755483-174-R-J1-PDC cell line growth inhibition [Asc]; conditions: second compound 0.0949 µM; first compound 0.1 µM; stronger effect = lower value;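 note: spheroids exposed to compounds for seven days before readout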
Some molecules, each annotated with its measured viability, T/C.

Below, each entry is followed by its recorded viability, T/C result.
C=C(F)C(=O)N1CCN(c2nc(OCC3CCCN3C)nc3c2CCN(c2cccc4cccc(Cl)c24)C3)CC1CC#N (stereo not drawn) + CCN1C(C(=O)NC23CCC(C(=O)O)(CC2)CC3)C(c2cccc(Cl)c2F)C2(C(=O)Nc3cc(Cl)ccc32)C12CCCCC2; 93.2%
C=CC(=O)N1CCN(c2nc(=O)n(-c3c(C)ccnc3C(C)C)c3nc(-c4c(O)cccc4F)c(F)cc23)C(C)C1 (stereo not drawn) + CCN1C(C(=O)NC23CCC(C(=O)O)(CC2)CC3)C(c2cccc(Cl)c2F)C2(C(=O)Nc3cc(Cl)ccc32)C12CCCCC2; 103%

Okay, next one:
Bench note: what viability, T/C did O=C(c1cc(Cc2n[nH]c(=O)c3ccccc23)ccc1F)N1CCN(C(=O)C2CC2)CC1 + CCN1C(C(=O)NC23CCC(C(=O)O)(CC2)CC3)C(c2cccc(Cl)c2F)C2(C(=O)Nc3cc(Cl)ccc32)C12CCCCC2 show? 77%
